- Test system: SJSA-1 cells
- ASSAY_TEXT: Cell lysis by peptidomimetic macrocycles (LDH release)
- Assay type: cell-based
- CONDITION_DESCRIPTION: 25 μM, SJSA-1, 1 h
Bridge positions count the residues as written; N and C are the ends. Square brackets hold non-standard residues; d marks the D form. Peptide text beside a SMILES is read from it. R8 = C=CCCCCCC[C@@](C)(N)C(=O)O; S5 = C=CCCC[C@](C)(N)C(=O)O
I'd be grateful if you could share measured 25 μM % Lysed cells (1 h LDH) for these entries.
Please reply with the bare figure in % and do not write the unit itself.

// returns reported 25 μM % Lysed cells (1 h LDH) for input CC(=O)N[C@@H](CC(C)C)C(=O)N[C@H](C(=O)N[C@@H](Cc1ccccc1)C(=O)N[C@]1(C)CCCCCCC=CCCC[C@@](C)(C(=O)N[C@@H](CO)C(=O)N[C@@H](C)C(=O)N[C@@H](C)C(N)=O)NC(=O)[C@H](CC2CCC2)NC(=O)[C@H](CCC(N)=O)NC(=O)[C@H](C)NC(=O)[C@H](Cc2c[nH]c3ccccc23)NC(=O)[C@H](Cc2ccc(O)cc2)NC(=O)[C@H](CCC(=O)O)NC1=O)[C@@H](C)O (single isomer, unassigned) [compound 153]
2

Then what about the compound CC(=O)N[C@@H](CC(C)C)C(=O)N[C@H](C(=O)N[C@@H](Cc1ccccc1)C(=O)N[C@]1(C)CCCCCCC=CCCC[C@@](C)(C(=O)N[C@@H](C)C(=O)N[C@@H](Cc2c[nH]cn2)C(=O)N[C@@H](Cc2ccccc2)C(=O)N[C@@H](C)C(N)=O)NC(=O)[C@H](CC(C)C)NC(=O)[C@H](CCC(N)=O)NC(=O)[C@H](C)NC(=O)[C@H](Cc2c[nH]c3ccccc23)NC(=O)[C@H](Cc2c[nH]cn2)NC(=O)[C@H](C)NC1=O)[C@@H](C)O [compound 183] (Ac-LTF[R8]AHWAQL[S5]AHFA-NH2; staple 4-11) ?
0

Try the compound CC(=O)N[C@@H](CC(C)C)C(=O)N[C@H](C(=O)N[C@@H](Cc1ccccc1)C(=O)N[C@]1(C)CCCCCCC=CCCC[C@@](C)(C(=O)N[C@@H](C)C(=O)N[C@@H](C)C(=O)N[C@@H](C)C(=O)N[C@@H](C)C(=O)N[C@@H](C)C(=O)N[C@@H](C)C(=O)N[C@H](C)C(N)=O)NC(=O)[C@H](CC(C)C)NC(=O)[C@H](CCC(N)=O)NC(=O)[C@H](C)NC(=O)[C@H](Cc2c[nH]c3ccccc23)NC(=O)[C@H](Cc2ccc(O)cc2)NC(=O)[C@H](C)NC1=O)[C@@H](C)O (single isomer, unassigned) [compound 317]
0

Please give the result for CC(=O)N[C@@H](CCC(=O)O)C(=O)N[C@H](C(=O)N[C@@H](Cc1ccccc1)C(=O)N[C@]1(C)CCCCCCC=CCCC[C@@](C)(C(=O)N[C@@H](CO)C(=O)N[C@@H](C)C(=O)N[C@@H](C)C(N)=O)NC(=O)[C@H](CC(C)C)NC(=O)[C@H](CCC(N)=O)NC(=O)[C@H](C)NC(=O)[C@H](Cc2c[nH]c3ccccc23)NC(=O)[C@H](Cc2ccc(O)cc2)NC(=O)[C@H](CCC(=O)O)NC1=O)[C@@H](C)O [compound 161] (Ac-ETF[R8]EYWAQL[S5]SAA-NH2; staple 4-11) too.
−1
